src = the NIST ThermoML archive (doi:10.1016/j.jct.2007.03.009)

Settings: Crystal; DTA
± gives the expanded uncertainty stated by the source.
Listed next: entries and their corresponding Normal melting temperature.

Worked cases, answers included:
Compound: O=C1c2ccccc2C(=O)N1CCCBr [N-(3-bromopropyl)phthalimide]
Measurement kind: Normal melting temperature
Reported measurement: 72.8 ± 0.5 °C

Compound: O=C1c2ccccc2C(=O)N1CCBr [N-(2-bromoethyl)phthalimide]
Measurement kind: Normal melting temperature
Reported measurement: 81.5 ± 0.5 °C

Compound: O=C1c2ccccc2C(=O)N1CCCl [N-(2-chloroethyl)phthalimide]
Measurement kind: Normal melting temperature
Reported measurement: 82.8 ± 0.5 °C

We next turn to a different compound, shown below.
So, O=C1c2ccccc2C(=O)N1CCl [N-(chloromethyl)phthalimide] ? Its Normal melting temperature was 133.5 ± 0.5 °C
